Sourced from patent US20250026813A1

experimental-target: SARS-CoV-2 spike protein bearing furin mutation and truncation in retention sequence (on pseudoviral envelope) (SARS-CoV-2, UniProt P0DTC2 14-1273)
experiment: cell-based or functional assay
result-type: PV neutralization % (Ab 1 ug/mL) (%)
Reply with just the number (in %).

| binder | unit-of-measure | PV neutralization % (Ab 1 ug/mL) |
| --- | --- | --- |
| YANG-1304 (antibody, V domains shown) VH: QVQLQQWGAGLVKTSETLSLTCAVYGGSFNDHYWSWIRQPPGKGLEWIGEINHSGSTNYNPSLKSRVTMSLDTSKNQFSLKLRSLTAADTAMYYCAIEGIWGQGAMVTVSS VL: SYELTQPPSVSVSPGQTARITCSGDALPIKYVHWYQQKSGQAPVLVIYEDSKRPSGIPERISGSSSGTMATLTMSGAQVEDEADYYCYSTDSSGNHWVFGGGTKLTVL | % | 41.5 |

## Task Name the recorded PV neutralization % (Ab 1 ug/mL) of the item YANG-1401 (antibody, V domains shown) VH: QVHLQESGPGLVKPSGTLSLTCAVSGGSFSQINWWSWVRQSPGKGLEWIGEIYHSGSTNYNPSLKSRVTMSVDKSKNQFSLALNSVTAADTAVYYCARGYYGDNWFDSWGQGTLVTVSS VL: DIQMTQSPSSLSASIGDRVTITCRASQGISNWLVWYQQKPEKAPKSLIYAASSLQSGVPSRFSGSGSGTDFTLTISSLHPEDFATYYCQQYSDYPLTFGGGTKVEIK in your answer.
## Result 91.6

## Task Name the recorded PV neutralization % (Ab 1 ug/mL) of the item YANG-1303 (antibody, V domains shown) VH: QVQLVQSGTEMKEPGASVKVSCKASGYTFTNYGITWVRQAPGQGLEWMGWLNTNNGDTNYAQKLQGRVTMTTDTSTSTAYMELRSLRSDDTAVYYCARDSVTTYDYWGQGTLVTVSS VL: SYELTQPPSVSVSPGQTARITCSGDALPKKYAYWFQQKSAQAPVLVIYEDSKRPSGIPERFSGSSSGTMATLTINGAQVEDEAAYYCYSLDSSGNHWVFGGGTKLTVL in your answer.
## Result 46.3
